Collected set of IC50 measured with NAD-dependent protein deacetylase sirtuin-2 (Homo sapiens) across studies.
- system under test: NAD-dependent protein deacetylase sirtuin-2 (Homo sapiens)
- Sequence (Q8IXJ6 whole entry): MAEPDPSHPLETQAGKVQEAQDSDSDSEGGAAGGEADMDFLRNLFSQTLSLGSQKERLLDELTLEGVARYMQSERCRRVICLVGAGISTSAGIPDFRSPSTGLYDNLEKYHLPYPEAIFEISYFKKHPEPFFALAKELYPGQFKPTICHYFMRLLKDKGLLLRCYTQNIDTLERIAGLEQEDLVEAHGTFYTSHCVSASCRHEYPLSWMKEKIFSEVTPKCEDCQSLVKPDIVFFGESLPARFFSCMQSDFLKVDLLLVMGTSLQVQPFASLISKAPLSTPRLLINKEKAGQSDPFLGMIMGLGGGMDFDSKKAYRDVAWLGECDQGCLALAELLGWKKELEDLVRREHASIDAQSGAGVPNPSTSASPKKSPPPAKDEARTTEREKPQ
parameter measured: IC50 (µM)

COC(=O)[C@H](C)NC(=O)[C@H](CCCCNC(=O)C=C(C)C)NC(=O)[C@H](C)NC(C)=O: 69
NC(=O)C1CN(Cc2ccccc2Br)c2ccccc2O1 (stereo unspecified): 16.6
CC(C)(NC(=O)/C=C/c1ccc(O)cc1)C(=O)NCCc1c[nH]c2ccccc12: 50
O=c1[nH]c(=O)c2cc(S(=O)(=O)Nc3ccc(Oc4cccnc4)cc3)ccc2[nH]1: 114

(1) CCCCCC1CC(=O)c2cc(Cl)cc(Br)c2O1 (stereo unspecified)
(2) O=C(NNC(=S)Nc1cccc(C(F)(F)F)c1)c1nc(-c2cccc3ccccc23)no1
(3) CNC(=O)[C@H](C)NC(=O)[C@H](CCCCNC(=O)C(C)(C)C)NC(=O)[C@H](C)NC(C)=O
(4) Clc1ccc(-c2noc(CCCBr)n2)cc1
Falling order of IC50, please. Would you mind listing the labels in the order requested?
2, 3, 4, 1
(2: 113 µM, 3: 66 µM, 4: 2.5 µM, 1: 1.5 µM)

(a) S=c1[nH]c2ccc3ccccc3c2[nH]1
(b) NC(=O)C1CN(Cc2cc(C(F)(F)F)cc(C(F)(F)F)c2)c2ccccc2O1 (stereo unspecified)
In terms of reported IC50, does a or b have the smaller number? Bench note: the answer is the label of the chosen record.
b
(b: 0.52 µM, a: 10 µM)

(a) Cc1ccc(C(=O)Nc2cccc3cc(Oc4cncc(C(N)=O)c4)ccc23)cc1[N+](=O)[O-]
(b) NCCn1c(=S)[nH]c2cc([N+](=O)[O-])ccc21
(c) NC(=O)C1CN(Cc2ccc([N+](=O)[O-])cc2)c2ccccc2O1 (stereo unspecified)
(d) NC(=O)c1cncc(Oc2ccc3c(NC(=O)c4ccccc4)cccc3c2)c1
Falling order of IC50, please. Would you mind listing the labels in the order requested?
c, b, a, d
(c: 34.7 µM, b: 5 µM, a: 0.869 µM, d: 0.436 µM)

(a) Cc1cc(C)nc(SCC(=O)Nc2cccc(Nc3ccccc3C(N)=O)c2)n1
(b) O=C(O)CCNC(=S)NCCCC[C@H](NS(=O)(=O)c1cccc(F)c1)C(=O)N[C@@H](Cc1c[nH]c2ccccc12)C(=O)NC1CCC1
(c) CCNC(=O)c1ccc(C(=O)NCCN2CCN(c3ncnc4cc(C(N)=O)sc34)CC2)s1
(d) N#Cc1ccccc1CN1CC(C(N)=O)Oc2ccccc21 (stereo in doubt; form 1)
(e) Cc1ccc(-c2[nH][nH]c(=O)c2Cc2c(O)ccc3cc(-c4ccccc4)ccc23)cc1
Put these in order: smallest IC50 first, largest last. Would you mind listing the labels in the order requested?
c, b, a, e, d

(P) NC(=O)c1cc2ncnc(N3CCC(CCNC(=O)c4cccs4)CC3)c2s1
(Q) CC(=O)NCCCC[C@H](NC(=O)[C@H](CCCCNC(C)=S)NC(=O)[C@H](CCCCNC(C)=O)NC(C)=O)C(N)=O
In terms of reported IC50, does P or Q have the smaller number? Bench note: the answer is the label of the chosen record.
P

---

Collected set of IC50 measured with UniProtKB Q8IXJ6 across studies.

Recorded results for 5 molecules are shown here.
CS(=O)(=O)N1CC(C(N)=O)Oc2ccccc21 (stereo not given): > 60 µM
Cc1ccc(NC(=O)N2CC(C(N)=O)Oc3ccccc32)cc1 (stereo not given): > 60 µM
CC1=CCC(C(=O)/N=C2\CC=C(S(=O)(=O)O)c3cc(S(=O)(=O)O)cc(S(=O)(=O)O)c32)=C/C1=N/C(=O)C1=CC=C/C(=N\C(=O)/N=C2\C=CC=C(C(=O)/N=C3/CC(C(=O)/N=C4\CC=C(S(=O)(=O)O)c5cc(S(=O)(=O)O)cc(S(=O)(=O)O)c54)=CC=C3C)C2)C1: 20 µM
C[C@H](NC(=O)c1nc(-c2ncc(-c3ccccc3)s2)sc1C1CC1)c1ccc(C(=O)NO)cc1: > 20 µM
NC(=O)C1CN(C(=O)c2ccccc2)c2ccccc2O1 (stereo not given): > 60 µM

Looking for the measured IC50 of COC(=O)c1ccccc1CN1CC(C(N)=O)Oc2ccccc21 (stereo not given) , can you help?
> 60 µM

Thanks! And N#Cc1cccc(NC(=O)N2CC(C(N)=O)Oc3ccccc32)c1 (stereo not given) ?
> 60 µM

Thanks! And CC(C)CC(=O)N1CC(C(N)=O)Oc2ccccc21 (stereo not given) ?
> 60 µM

Thanks! And O=C(O)C1CNc2ccccc2O1 (stereo not given) ?
> 60 µM

Thanks! And Cc1ccc(S(=O)(=O)N2CC(C(N)=O)Oc3ccccc32)cc1 (stereo not given) ?
> 60 µM
